B1: KCNA3 (parent)
chain: YQSGGRIRRPVNVPIDIFSEEIRF

Variants of: B1
test.protocol: protein stability index of a GFP-peptide fusion (GPS, HEK-293T) (PSI 1-6); higher = more stable;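 also: lentivirally expressed fusions sorted by FACS into six bins by GFP to DsRed ratio, PSI derived from sequencing read proportions per bin multiplied by bin number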
details: c terminus: a fixed tail appended
Label rule, in plain words: protein stability index of 2 and up is 1, under 2 is 0.

MQSGGRIRRPVNVPIDIFSEEIRF
1
YQSGGRIREPVNVPIDIFSEEIRF
1
YQSGGRIRRPVNVPIDIISEEIRF
0
YQSGGWIRRPVNVPIDIFSEEIRF
0
WQSGGRIRRPVNVPIDIFSEEIRF
1

Enquiry: Test whether the variant YQSGHRIRRPVNVPIDIFSEEIRF records protein stability index of 2 or higher.
Return: 1

Enquiry: Test whether the variant AQSGGRIRRPVNVPIDIFSEEIRF records protein stability index of 2 or higher.
Return: 1

Enquiry: Test whether the variant YQSGGRGRRPVNVPIDIFSEEIRF records protein stability index of 2 or higher.
Return: 1

Enquiry: Test whether the variant YQSGGRIRRPVNVPIDIFSDEIRF records protein stability index of 2 or higher.
Return: 1

Attribution: the supplement of paper PMC10567573
